Sourced from patent US7585875B2

target-of-assay: phosphodiesterase (PDE) enzyme derived from bovine brain
test-summary: Inhibition of PDE (PDELight kit, cAMP substrate)
test-settings: PDE from brain extract, cAMP as substrate
pIC50: −log10 of the molar value. Structures can show the parent of a compound that is named as a salt.
observation-type: pIC50

[[record]]
molecule = "CC(C)C(=NOC(N)=O)c1c(-c2ccccc2)nn2ccccc12"
value_prefix = "<"
value_observed = 3.70

[[record]]
molecule = "CNC(C)C(=O)c1c(C(C)C)nn2ccccc12 (centres unmarked) [Compound 1042, hydrochloride]"
value_prefix = "="
value_observed = 4.50

[[record]]
molecule = "COc1ccc(-c2nn3ccccc3c2C(=NOC(N)=O)C(C)C)cc1"
value_prefix = "="
value_observed = 3.81

[[record]]
molecule = "CC(C)C(=NOC(N)=O)c1c(C(C)C)nn2ccccc12"
value_prefix = "="
value_observed = 4.00

[[record]]
molecule = "CC(C)C(=O)c1c(-c2ccc(F)cc2)nn2ccccc12"
value_prefix = "<"
value_observed = 3.70

[[record]]
molecule = "CC(C)c1nn2ccccc2c1C(=O)c1ccc(Cl)cc1"
value_prefix = "<"
value_observed = 3.70

[[record]]
molecule = "COc1ccc2c(C(=O)C(C)C)c(C(C)C)nn2c1"
value_prefix = "="
value_observed = 4.23

[[record]]
molecule = "CC(C)C(=O)c1c(-c2ccc(F)cc2)nn2cc(C(F)(F)F)ccc12"
value_prefix = "<"
value_observed = 3.70

[[record]]
molecule = "CC(C)C(=O)c1c(C(C)(C)O)nn2ccccc12"
value_prefix = "<"
value_observed = 4.00

[[record]]
molecule = "CC(C)c1nn2ccccc2c1C(=O)C(N)c1ccccc1 (centres unmarked)"
value_prefix = "="
value_observed = 5.09

[[record]]
molecule = "CC(C)C(=NOC(N)=O)c1c(-c2ccc(F)cc2)nn2ccccc12"
value_prefix = "<"
value_observed = 3.70

[[record]]
molecule = "CC(C)=Cc1c(C(C)C)nn2ccccc12"
value_prefix = "="
value_observed = 4.03

[[record]]
molecule = "CC(C)C(=NO)c1c(-c2ccccc2)nn2ccccc12"
value_prefix = "="
value_observed = 4.12

[[record]]
molecule = "CC(C)c1nn2ccccc2c1C(=O)C(C)(C)O"
value_prefix = "="
value_observed = 4.90

[[record]]
molecule = "CC(C)C(=NO)c1c(-c2ccc(Cl)cc2)nn2ccccc12"
value_prefix = "="
value_observed = 4.64

[[record]]
molecule = "CC(C)C(=NO)c1c(-c2ccc(F)cc2)nn2ccccc12"
value_prefix = "="
value_observed = 4.40

[[record]]
molecule = "CC(C)c1nn2ccccc2c1C(NCC1CC1)C(C)C (centres unmarked) [Compound 1048, hydrochloride]"
value_prefix = "<"
value_observed = 3.70

[[record]]
molecule = "CC(C)c1nn2ccccc2c1C(=O)C(C)N1CCCCC1 (centres unmarked) [Compound 1036, hydrochloride]"
value_prefix = "<"
value_observed = 3.70

[[record]]
molecule = "CC(C)C(=O)c1c(C(C)C)nn2cc(O)ccc12"
value_prefix = "="
value_observed = 4.53

[[record]]
molecule = "CC(C)C(=NO)c1c(C(C)C)nn2ccccc12"
value_prefix = "="
value_observed = 4.40

[[record]]
molecule = "COc1ccc(-c2nn3ccccc3c2C(=O)C(C)C)cc1"
value_prefix = "<"
value_observed = 3.70

[[record]]
molecule = "CC(C)C(=O)c1c(-c2ccc(Cl)cc2)nn2ccccc12"
value_prefix = "="
value_observed = 4.74

[[record]]
molecule = "CC(C)c1nn2ccccc2c1C(=O)CN"
value_prefix = "<"
value_observed = 3.70

[[record]]
molecule = "CC(C)c1nn2ccccc2c1C(=O)C(C)N1CCOCC1 (centres unmarked) [Compound 1034, hydrochloride]"
value_prefix = "="
value_observed = 4.36

[[record]]
molecule = "CC(C)c1nn2ccccc2c1C(=O)C(C)N1CCN(C)CC1 (centres unmarked) [Compound 1035, hydrochloride]"
value_prefix = "="
value_observed = 3.70

[[record]]
molecule = "CC(C)c1nn2ccccc2c1C(O)C(C)C (centres unmarked)"
value_prefix = "<"
value_observed = 3.70

[[record]]
molecule = "CC(NC1CC1)C(=O)c1c(C(C)C)nn2ccccc12 (centres unmarked) [Compound 1045, hydrochloride]"
value_prefix = "="
value_observed = 4.21

[[record]]
molecule = "CCC(=O)c1c(CC)nn2ccccc12"
value_prefix = "="
value_observed = 4.57

[[record]]
molecule = "COc1ccc(C(=O)c2c(C(C)C)nn3ccccc23)cc1"
value_prefix = "="
value_observed = 5.24

[[record]]
molecule = "CC(C)c1nn2ccccc2c1C(=O)C(C)N(C)Cc1ccccc1 (centres unmarked)"
value_prefix = "="
value_observed = 4.67

[[record]]
molecule = "CC(C)C(=NOC(N)=O)c1c(-c2ccc(Cl)cc2)nn2ccccc12"
value_prefix = "="
value_observed = 4.56

[[record]]
molecule = "CC(C)c1nn2ccccc2c1C(=O)C1CC1"
value_prefix = "="
value_observed = 4.48

[[record]]
molecule = "CC(C)C(=O)c1c(C(C)C)nn2ccccc12 [compound 411, reference compound]"
value_prefix = "="
value_observed = 4.99

[[record]]
molecule = "CCC(=O)c1c(C(C)C)nn2ccccc12"
value_prefix = "="
value_observed = 4.24

[[record]]
molecule = "O=C(c1c(C2CC2)nn2ccccc12)C1CC1"
value_prefix = "="
value_observed = 4.81

[[record]]
molecule = "COc1ccc(-c2nn3ccccc3c2C(=NO)C(C)C)cc1"
value_prefix = "="
value_observed = 4.62

[[record]]
molecule = "CC(C)C(=O)c1c(-c2ccccc2)nn2ccccc12"
value_prefix = "="
value_observed = 4.10

[[record]]
molecule = "CC(C)c1nn2ccccc2c1C(=O)C(C)N1CCNCC1 (centres unmarked) [Compound 1037, hydrochloride]"
value_prefix = "<"
value_observed = 3.70

[[record]]
molecule = "CC(C)c1nn2ccccc2c1C(=O)c1ncccc1Cl"
value_prefix = "="
value_observed = 4.58

[[record]]
molecule = "CC(N)C(=O)c1c(C(C)C)nn2ccccc12 (centres unmarked)"
value_prefix = "<"
value_observed = 3.70

[[record]]
molecule = "CC(C)c1nn2ccccc2c1C(NC1CC1)C(C)C (centres unmarked)"
value_prefix = "<"
value_observed = 3.70

